The reported measurements were obtained from PubChem BioAssay (NCATS).

Assay: qHTS assay for measurement of the activity of small molecule inhibitors on Zika virus induced Caspase-3 activity in human iPSC derived neural progenitor cells (hNPCs) (AID 1224857); note: nearly all actives have a fitted effect of over 65% in size
Conditions: hNPCs ZIKV-induced caspase-3/7, Caspase-Glo luminescence, 6 h; series mostly up to 45.7 µM
Inconclusive results are not listed. Activity calls are given as the source filed them. Calls come from the whole dose curve; as a rule, active = well fitted inhibition curve with a large enough effect; inconclusive = small, poorly fitted or top-dose-only effect; inactive = no such curve, though single readings can be large or run the other way.
MEASURE: activity change, negative = inhibition

These recorded examples may help you get a feel for the data.
QUERY: Please report the recorded activity change, negative = inhibition for NS(=O)(=O)c1cc2c(cc1C(F)(F)F)NCNS2(=O)=O .
RESULT: inactive

QUERY: Please give the measured activity change, negative = inhibition for this molecule: O=c1[nH]c(=O)c2ccccc2o1
RESULT: inactive

QUERY: What activity change, negative = inhibition value was documented for this molecule, O=C1c2ccccc2C(=O)C1c1ccc(Br)cc1 ?
RESULT: inactive

QUERY: Which activity change, negative = inhibition reading was recorded for the molecule Cc1ccsc1C(=CCCN1CCC[C@@H](C(=O)O)C1)c1sccc1C ?
RESULT: inactive

QUERY: Name the reported activity change, negative = inhibition value associated with the molecule CC1(C)[C@@H](OC(=O)CCC(=O)O)CC[C@]2(C)[C@H]3C(=O)C=C4[C@@H]5C[C@@](C)(C(=O)O)CC[C@]5(C)CC[C@@]4(C)[C@]3(C)CC[C@@H]12
RESULT: inactive

***
QUERY: Fill in: activity change, negative = inhibition of Cc1ccc(S(=O)(=O)NC(=O)NC2CCCCC2)cc1 is ___
RESULT: inactive

QUERY: Endpoint output: activity change, negative = inhibition of CCCNC(C)(C)COC(=O)c1ccccc1 . Value?
RESULT: inactive

QUERY: Request the reported activity change, negative = inhibition associated with CCCCCCCCCCCCCCCCC(C(=O)O)C(O)(CC(=O)O)C(=O)O (stereo unspecified)
RESULT: inactive

QUERY: For Cc1[nH]c(C)c(Cl)c(=O)c1Cl , what is its reported activity change, negative = inhibition?
RESULT: inactive

QUERY: # query: activity change, negative = inhibition of entry COc1ccc(C(=O)N2CCN(CC(=O)N3CCOCC3)CC2)cc1
RESULT: inactive

QUERY: Which measured activity change, negative = inhibition value corresponds to O=c1[nH]c2cc(C(F)(F)F)c(N3CCOCC3)cc2n(CP(=O)(O)O)c1=O ?
RESULT: inactive

###

Biological target: Phospholipid hydroperoxide glutathione peroxidase GPX4 (Homo sapiens)
Test: Primary qHTS Assay for Inhibitors of Recombinant Selenoprotein Glutathione Peroxidase 4 (GPX4) (AID 1845192); note: nearly all actives have a fitted effect of over 65% in size
Conditions: recombinant GPX4, GR-coupled NADPH fluorescence, 15 min; series mostly up to 50 µM
Inconclusive results are not listed. Calls of active or inactive are those of the source. Calls follow the shape of the dose curve; as a rule, active = well fitted inhibition curve with a large enough effect; inconclusive = small, poorly fitted or top-dose-only effect; inactive = flat fitted curve, though single readings scatter.
MEASURE: outcome

QUERY: What value of outcome has been reported for the following compound? COc1ccc(-c2cc(=O)c3c(O)cc(O[C@@H]4O[C@H](CO[C@@H]5O[C@@H](C)[C@H](O)[C@@H](O)[C@H]5O)[C@@H](O)[C@H](O)[C@H]4O)cc3o2)cc1O
RESULT: inactive

QUERY: Would you mind telling me what outcome value was observed for C[n+]1ccccc1/C=N/O ?
RESULT: inactive

QUERY: For the compound Cc1ccsc1/C=C/C1=NCCCN1C , what outcome is on record?
RESULT: inactive

QUERY: Entry under review: C/C=C/C(=O)N(CC)c1ccccc1C . Reported outcome?
RESULT: inactive

QUERY: Need outcome, item NCC1CCC(C(=O)Oc2ccc(CCC(=O)O)cc2)CC1 (stereo unspecified)
RESULT: inactive

QUERY: # lookup: outcome of CC(C)(C)C(=O)OCOC(=O)[C@@H]1N2C(=O)[C@@H](NC(=O)[C@H](N)c3ccccc3)[C@H]2SC1(C)C
RESULT: inactive

Others:
QUERY: Find the recorded outcome belonging to CCOC(=O)[C@H](CCc1ccccc1)N[C@@H](C)C(=O)N1CCC[C@H]1C(=O)O and report it.
RESULT: inactive

QUERY: What value of measured outcome is listed for O=C(CCBr)N1CCN(C(=O)CCBr)CC1 ?
RESULT: inactive

QUERY: Any idea what its outcome is? The compound is CC(C)c1cc2c(cc1S(=O)(=O)O)[C@@]1(C)CCC[C@@](C)(C(=O)O)[C@@H]1CC2
RESULT: inactive

QUERY: Recorded outcome of COC(=O)N/N=C/c1c[n+]([O-])c2ccccc2[n+]1[O-] , please.
RESULT: inactive

QUERY: // outcome lookup, key: CC(C)NC[C@@H](O)COc1ccc(CC(N)=O)cc1
RESULT: inactive

QUERY: I would be grateful if you could share the reported outcome for CCN(CC)C(=O)c1cccc(C)c1 .
RESULT: inactive

QUERY: Look up outcome: CCOC(=O)OC(C)OC(=O)[C@@H]1N2C(=O)[C@@H](NC(=O)[C@H](N)c3ccccc3)[C@H]2SC1(C)C (stereo partly specified)
RESULT: inactive
